target_or_test_system: wild type FGFR-4 (Homo sapiens (Human))
Sequence (P22455 22-802): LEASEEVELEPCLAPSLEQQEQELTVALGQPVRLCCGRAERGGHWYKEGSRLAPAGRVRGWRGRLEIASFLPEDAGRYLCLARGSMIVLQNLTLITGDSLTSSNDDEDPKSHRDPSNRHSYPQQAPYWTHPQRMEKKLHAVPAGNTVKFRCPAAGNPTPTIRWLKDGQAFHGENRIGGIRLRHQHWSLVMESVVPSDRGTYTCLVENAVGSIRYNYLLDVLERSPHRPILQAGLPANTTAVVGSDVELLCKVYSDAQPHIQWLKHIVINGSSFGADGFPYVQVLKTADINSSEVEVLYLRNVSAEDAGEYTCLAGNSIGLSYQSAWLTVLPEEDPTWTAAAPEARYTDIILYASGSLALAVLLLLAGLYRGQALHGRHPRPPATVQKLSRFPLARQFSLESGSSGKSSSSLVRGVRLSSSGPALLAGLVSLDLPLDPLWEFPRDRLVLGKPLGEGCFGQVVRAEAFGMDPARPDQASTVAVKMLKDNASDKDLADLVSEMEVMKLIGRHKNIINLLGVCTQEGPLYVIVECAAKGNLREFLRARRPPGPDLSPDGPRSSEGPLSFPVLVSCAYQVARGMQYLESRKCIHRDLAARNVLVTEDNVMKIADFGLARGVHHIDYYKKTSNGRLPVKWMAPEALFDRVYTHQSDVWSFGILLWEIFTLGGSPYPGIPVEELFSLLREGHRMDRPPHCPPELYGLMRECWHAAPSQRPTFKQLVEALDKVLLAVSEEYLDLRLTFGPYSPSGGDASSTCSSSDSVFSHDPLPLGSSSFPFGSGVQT
pIC50: −log10 of the molar value.
measure_name: pIC50

C=CC(=O)Nc1ccc(F)c(-c2ncc3cc(-c4c(Cl)c(OC)cc(OC)c4Cl)c(=O)n(CC)c3n2)c1 [Compound 31]    7.00 to 8.00
C=CC(=O)Nc1ccccc1-c1cc2ccc(-c3c(Cl)c(OC)cc(OC)c3Cl)cc2cn1 [Compound 1]    6.00 to 7.00
C=CC(=O)Nc1ccccc1-c1cc2c(cn1)cc(-c1c(Cl)c(OC)cc(OC)c1Cl)c(=O)n2CC [Compound 19]    > 8.00
C=CC(=O)Nc1cc(F)c(F)c(-c2cc3c(cn2)cc(-c2c(Cl)c(OC)cc(OC)c2Cl)c(=O)n3CC)c1 [Compound 41]    > 8.00
C=CC(=O)N1CC(C)(C)Oc2cc(F)c(-c3ncc4cc(-c5c(Cl)c(OC)cc(OC)c5Cl)ccc4n3)cc21 [Compound 48]    7.00 to 8.00

**Query** Look up pIC50 for this compound: C=CC(=O)N1CCOc2cc(C)c(-c3ncc4cc(-c5c(Cl)c(OC)cc(OC)c5Cl)ccc4n3)cc21 [Compound 24]
**Result** 7.00 to 8.00

**Query** And the next one, C=CC(=O)Nc1ccccc1-c1cc2c(cn1)cc(-c1cc(C(=O)NOC)ccc1Cl)c(=O)n2CC [Compound 9] ?
**Result** > 8.00

**Query** Now the same for C=CC(=O)Nc1ccccc1-c1ncc2cc(-c3c(Cl)c(OC)cc(OC)c3Cl)c(OC)cc2n1 [Compound 15]
**Result** 6.00 to 7.00

**Query** Subsequent entry: C=CC(=O)N1CCOc2ccc(-c3cc4c(cn3)cc(-c3c(Cl)c(OC)cc(OC)c3Cl)c(=O)n4CC)cc21 [Compound 47]
**Result** > 8.00

**Query** // repeat for C=CC(=O)N1CCOc2ccc(-c3cc4c(cn3)nc(-c3c(Cl)c(OC)cc(OC)c3Cl)c(=O)n4C3CCCC3)cc21 [Compound 56] and report
**Result** > 8.00

**Query** Now give it for C=CC(=O)N1CCOc2ccc(-c3cc4c(cn3)cc(-c3c(Cl)c(OC)cc(OC)c3Cl)c(=O)n4C)cc21 [Compound 37] too.
**Result** > 8.00

**Query** Same lookup for C=CC(=O)Nc1ccc(C)c(-c2cc3c(cn2)CN(c2c(Cl)c(OC)cc(OC)c2Cl)C(=O)N3CC)c1 [Compound 29] , please.
**Result** 7.00 to 8.00

**Query** Same for C=CC(=O)Nc1ccc(C)c(-c2cc3c(cn2)cc(-c2c(Cl)c(OC)cc(OC)c2Cl)c(=O)n3CC)c1 [Compound 27]
**Result** 7.00 to 8.00

**Query** Now try C=CC(=O)N1CCc2ccc(-c3ncc4cc(-c5c(Cl)c(OC)cc(OC)c5Cl)ccc4n3)cc21 [Compound 11] .
**Result** 7.00 to 8.00

**Query** Please give the result for C=CC(=O)N1CCOc2cc(F)c(-c3ncc4cc(-c5c(Cl)c(OC)cc(OC)c5Cl)ccc4n3)cc21 [Compound 28] too.
**Result** > 8.00

**Query** Then C=CC(=O)N1CCOc2ccc(-c3ncc4cc(-c5c(Cl)c(OC)cc(OC)c5Cl)c(=O)n(C5CCCC5)c4n3)cc21 [Compound 55] ?
**Result** 7.00 to 8.00

**Query** Same again, this time with C=CC(=O)Nc1ccc(C)c(-c2ncc3cc(-c4c(Cl)c(OC)cc(OC)c4Cl)ccc3n2)c1 [Compound 5]
**Result** < 6.00

**Query** Also check C=CC(=O)Nc1ccccc1-c1ncc2cc(-c3c(Cl)c(OC)cc(OC)c3Cl)ccc2n1 [Compound 2]
**Result** 6.00 to 7.00
